Each recorded value in this set is attributed to patent US20190240316A1.

molecular target: T1, recombinant post-fusion RSV strain A2 F protein (human respiratory syncytial virus …, UniProt P03420 26-109; P03420 147-513); assay: ELISA on coated antigen
T1 construct: Viral fusion glycoprotein, trimer of protomers (each cleaved into two disulfide-linked fragments); also called RSV A2; post-fusion RSV A2 F
T1 sequence (P03420 147-513, one chain of several): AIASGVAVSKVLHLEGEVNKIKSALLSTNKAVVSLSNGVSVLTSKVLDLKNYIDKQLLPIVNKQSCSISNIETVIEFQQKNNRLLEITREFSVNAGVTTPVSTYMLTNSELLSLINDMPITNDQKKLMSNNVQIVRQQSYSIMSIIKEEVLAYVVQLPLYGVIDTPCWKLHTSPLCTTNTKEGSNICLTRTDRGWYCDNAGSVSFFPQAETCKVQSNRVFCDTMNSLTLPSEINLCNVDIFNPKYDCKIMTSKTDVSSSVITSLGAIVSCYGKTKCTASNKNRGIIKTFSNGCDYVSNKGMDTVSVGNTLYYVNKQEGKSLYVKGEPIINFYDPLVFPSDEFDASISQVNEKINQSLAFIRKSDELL
PROPERTY: EC50 (µg/mL)
Write down the numeric answer in µg/mL and omit the unit.

BINDER: mAb 10F13 (antibody, V domains shown, The printed light chain has an unusual N-terminal part) VH: QVQLVQSGGGVVQPGRSLRLSCAASGFPFRIYSMHWVRQAPGKGLEWVALISYDGTNKQYADSVNGRFTISRDNSENTMYLQMNSLRPEDTAIYYCATDIVELVTATDYWGQGTLVTVSS VL: AVVTQSPGTLSLSPGDRATLSCRASQSVSTSLGWYQQKPGQSPRLLIYGTSRRATGVPDRFSGSGSETDFTLTISRLEPEDFSVYYCQQYGSSPYTFGQGTRLEIK
EC50 (µg/mL): 0.017

We now examine a further binder.
Need EC50, item mAb 4B6 (antibody, V domains shown) VH: QVQLVQSGGGLAQPGRSLRLSCRASGFTFGDFNMNWFRQAPGKGLEWVGFIRRKAFGGATEYAASVKGRLTISRDDSKSIAYLQMNSLKTEDTAVYYCTRERGYVGSGGPFFDYWGQGTLVTVSS VL: QAVVTQPPSVSGAPGQRVTISCTGSSSNIGAGYDVHWYQQLPGTAPKLLIYGDSNRPSGVPDRFSGSSSGTSASLAITGLQAEDEADYYCQSYDNSLSGSVFGTGTKVTVL
0.024
